Catalogue of compounds with associated hepatocyte CLint
# Test summary: in vitro
# Test settings: human, cryopreserved HepaRG cells
# Description: Intrinsic clearance in cryopreserved human HepaRG cells assessed per 10^6 cells by LC-MS/MS method
For clarity, give the value followed by its unit.

Compound: CC(CCc1ccccc1)NCC(O)c1ccc(O)c(C(N)=O)c1 (stereo not given)
hepatocyte CLint: 7.47 µL/min/1e6 cells
--
Compound: C[C@]12C=CC(=O)C=C1CC[C@@H]1[C@@H]2[C@@H](O)C[C@@]2(C)[C@H]1CC[C@]2(O)C(=O)CO
hepatocyte CLint: 8.49 µL/min/1e6 cells
--
Compound: COc1ccc(Cl)cc1C(=O)NCCc1ccc(S(=O)(=O)NC(=O)NC2CCCCC2)cc1 [GLYBURIDE]
hepatocyte CLint: 10.1 µL/min/1e6 cells
--
Compound: CN1CCN2c3ccccc3Cc3ccccc3C2C1 (stereo not given)
hepatocyte CLint: 54.6 µL/min/1e6 cells
--
Compound: CN(C)CCCN1c2ccccc2Sc2ccccc21
hepatocyte CLint: 51.6 µL/min/1e6 cells
--
Compound: CN1CCN(CCCN2c3ccccc3Sc3ccc(Cl)cc32)CC1
hepatocyte CLint: 144 µL/min/1e6 cells

Request: Need hepatocyte CLint, item CC(C(=O)O)c1cccc(Oc2ccccc2)c1 (stereo not given)
Response: 5.31 µL/min/1e6 cells

Request: Similarly, Cc1nc2n(c(=O)c1CCN1CCC(c3noc4cc(F)ccc34)CC1)CCCC2 ?
Response: 4.02 µL/min/1e6 cells
